- Test system: human recombinant COX-1
- Procedure Text: Cyclooxygenase inhibition assay (EIA kit), COX-1
- Assay type: biochemical
- Condition Parameters: COX-1 over COX-2
# key: entry, value: COX1 Selectivity Index
Outcome Measure: COX1 Selectivity Index

O=S(=O)(Nc1ncccn1)c1ccc(/N=C/c2ccco2)cc1 ... 5.86
O=S(=O)(Nc1ncccn1)c1ccc(/N=C/c2ccccc2O)cc1 ... 3.16
O=S(=O)(Nc1cnc2ccccc2n1)c1ccc(/N=C/c2ccco2)cc1 ... 18.69
O=S(=O)(Nc1cnc2ccccc2n1)c1ccc(/N=C/c2ccccc2O)cc1 ... 2.87

---

// reported IC50 per item
- Target System: human recombinant COX-2 (Homo sapiens, UniProt P35354)
- Construct: purchased Cayman Chemical 560131
- Sequence (P35354 18-604): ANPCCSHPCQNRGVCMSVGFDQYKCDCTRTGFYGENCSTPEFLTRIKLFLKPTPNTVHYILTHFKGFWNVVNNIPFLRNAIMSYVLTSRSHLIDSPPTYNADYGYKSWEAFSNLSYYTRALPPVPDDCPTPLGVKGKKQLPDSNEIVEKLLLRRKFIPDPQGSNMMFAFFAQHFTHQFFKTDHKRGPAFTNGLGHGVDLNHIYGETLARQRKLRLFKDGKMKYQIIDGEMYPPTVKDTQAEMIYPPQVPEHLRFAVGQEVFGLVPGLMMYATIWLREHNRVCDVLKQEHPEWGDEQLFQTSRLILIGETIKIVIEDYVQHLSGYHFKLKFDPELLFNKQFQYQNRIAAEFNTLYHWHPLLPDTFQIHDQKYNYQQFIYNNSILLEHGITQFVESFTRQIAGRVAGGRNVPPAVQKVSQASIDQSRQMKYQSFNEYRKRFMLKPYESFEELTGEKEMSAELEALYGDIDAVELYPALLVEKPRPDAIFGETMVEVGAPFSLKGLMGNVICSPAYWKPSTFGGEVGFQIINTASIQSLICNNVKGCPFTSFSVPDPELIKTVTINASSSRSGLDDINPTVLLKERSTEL
- Procedure Text: Cyclooxygenase inhibition assay (EIA kit), COX-2
- Assay type: biochemical
- Condition Parameters: human recombinant COX-2, EIA kit
Outcome Measure: IC50

O=S(=O)(Nc1ncccn1)c1ccc(/N=C/c2ccccc2O)cc1 ... 15.2 µM
O=S(=O)(Nc1cnc2ccccc2n1)c1ccc(/N=C/c2ccco2)cc1 ... 13.3 µM
O=S(=O)(Nc1cnc2ccccc2n1)c1ccc(/N=C/c2ccccc2O)cc1 ... 9.26 µM
O=S(=O)(Nc1ncccn1)c1ccc(/N=C/c2ccco2)cc1 ... 11.3 µM

---

- Test system: platelet aggregation induced by ADP
- Procedure Text: Anti-platelet aggregation assay, ADP-induced
- Type: cell-based
- Condition Parameters: platelet aggregation induced by 10 μM ADP; 4 working concentrations
- Description: Furthermore, the target compounds 10–13 were capable of inhibiting the platelet aggregation induced by 10 μM ADP and 0.33 U/mL collagen. The anti-platelet aggregation assays were performed according to the method reported by XIE et al. (Supplementary Materials).
Outcome Measure: IC50

O=S(=O)(Nc1ncccn1)c1ccc(/N=C/c2ccco2)cc1 [Compound 10] ... 370 nM
O=S(=O)(Nc1ncccn1)c1ccc(/N=C/c2ccccc2O)cc1 [Compound 11] ... 250 nM
CC(=O)Oc1ccccc1C(=O)O [Aspirin] ... 490 nM
O=S(=O)(Nc1cnc2ccccc2n1)c1ccc(/N=C/c2ccco2)cc1 [Compound 12] ... 110 nM

Every entry's value here was drawn from paper PMC11206759.
